Biological target: hTLR8 (Homo sapiens)
Sequence (Q9NR97 27-1041): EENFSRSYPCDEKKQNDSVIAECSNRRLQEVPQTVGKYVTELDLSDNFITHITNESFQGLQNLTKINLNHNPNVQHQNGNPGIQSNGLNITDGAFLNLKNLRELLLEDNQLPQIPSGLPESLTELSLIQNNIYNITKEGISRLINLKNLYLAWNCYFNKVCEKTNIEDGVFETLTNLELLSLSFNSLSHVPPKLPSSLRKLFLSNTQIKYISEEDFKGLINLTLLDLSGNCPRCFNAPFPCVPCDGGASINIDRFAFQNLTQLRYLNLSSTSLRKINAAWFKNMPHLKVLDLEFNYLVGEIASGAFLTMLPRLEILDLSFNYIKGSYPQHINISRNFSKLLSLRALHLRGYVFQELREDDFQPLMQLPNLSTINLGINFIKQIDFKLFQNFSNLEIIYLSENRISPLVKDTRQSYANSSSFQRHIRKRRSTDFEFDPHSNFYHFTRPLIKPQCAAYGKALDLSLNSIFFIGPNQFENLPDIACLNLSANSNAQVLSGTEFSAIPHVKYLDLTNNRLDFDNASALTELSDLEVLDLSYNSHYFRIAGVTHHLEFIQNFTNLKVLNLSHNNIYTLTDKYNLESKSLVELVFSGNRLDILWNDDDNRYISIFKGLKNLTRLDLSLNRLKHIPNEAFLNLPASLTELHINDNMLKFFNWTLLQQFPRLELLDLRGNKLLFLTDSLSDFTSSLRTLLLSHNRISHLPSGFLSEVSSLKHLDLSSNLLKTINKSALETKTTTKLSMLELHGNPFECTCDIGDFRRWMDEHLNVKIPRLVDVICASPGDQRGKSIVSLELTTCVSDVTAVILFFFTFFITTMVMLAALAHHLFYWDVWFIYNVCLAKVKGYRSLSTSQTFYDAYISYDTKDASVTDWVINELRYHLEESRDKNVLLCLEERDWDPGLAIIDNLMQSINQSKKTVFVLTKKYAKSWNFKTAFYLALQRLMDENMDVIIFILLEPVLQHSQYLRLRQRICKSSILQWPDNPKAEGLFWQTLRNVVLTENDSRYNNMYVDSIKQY
Assay: HEK-Blue hTLR8 SEAP reporter assay
Settings: HEK-Blue hTLR8 cells, SEAP in supernatant
Answer each item with its documented pEC50.
A value of pEC50 is the negative decimal logarithm of a concentration given in moles per litre.

Data request: Query (compound): CCCCNc1nc(N)nc2ccc(Cc3ccc(CN4CCOCC4)cc3)nc12 ; field requested: pEC50
Data returned: 7.29

Data request: What do we get for CCCCCc1cc(Cc2ccc(CN3CCCC3)cc2)c(C)nc1N [B-130b] ?
Data returned: 7.17

Data request: What do we get for CCCCNc1nc(N)nc2ccc(Cc3ccc(CN(C)C)cc3OC)nc12 ?
Data returned: 7.36

Data request: What do we get for CCCCCc1cc(Cc2ccc(CN(C)C)cc2)c(C)nc1N [B-130a] ?
Data returned: 7.26

Data request: What do we get for CCCN(CCC)C(=O)C1=Cc2ccc(-c3ccc(C(=O)N4CCCC4)cc3)cc2N=C(N)C1 [VTX-2337, reference compound] ?
Data returned: 6.82

Data request: What do we get for CCCCNc1nc(N)nc2ccc(Cc3ccc(CN4CCCC4)cc3)nc12 ?
Data returned: 7.76

Data request: What do we get for COCCNc1nc(N)nc2ccc(Cc3ccc(CN(C)C)cc3)nc12 ?
Data returned: 8.01

Data request: What do we get for CCCCNc1nc(N)nc2ccc(C(C)c3ccc(CN(C)C)cc3)nc12 (stereo not drawn) ?
Data returned: 6.75

Data request: What do we get for CCCCNc1nc(N)nc2ccc(Cc3ccc(CN(C)C)cc3)nc12 ?
Data returned: 8.19

###

target: hTLR8 (Homo sapiens, UniProt Q9NR97); experiment: HEK-Blue hTLR8 SEAP reporter assay; conditions: HEK-Blue hTLR8 cells, SEAP in supernatant
test readout: pEC50
A value of pEC50 is the negative decimal logarithm of a concentration given in moles per litre.

Data request: Query (compound): CCCCCc1cc2nc(Cc3ccc(CN(C)C)cc3)ccc2nc1N ; field requested: pEC50
Data returned: 6.71

Data request: What do we get for CCCCNc1nc(N)nc2ccc(Cl)nc12 ?
Data returned: 5.70

###

Answer each item with its documented log10 EC50.
target: hTLR7 (Homo sapiens, UniProt Q9NYK1); assay: HEK-Blue hTLR7 SEAP reporter assay; settings: HEK-Blue hTLR7 cells, SEAP in supernatant
Sequence (Q9NYK1 27-1049): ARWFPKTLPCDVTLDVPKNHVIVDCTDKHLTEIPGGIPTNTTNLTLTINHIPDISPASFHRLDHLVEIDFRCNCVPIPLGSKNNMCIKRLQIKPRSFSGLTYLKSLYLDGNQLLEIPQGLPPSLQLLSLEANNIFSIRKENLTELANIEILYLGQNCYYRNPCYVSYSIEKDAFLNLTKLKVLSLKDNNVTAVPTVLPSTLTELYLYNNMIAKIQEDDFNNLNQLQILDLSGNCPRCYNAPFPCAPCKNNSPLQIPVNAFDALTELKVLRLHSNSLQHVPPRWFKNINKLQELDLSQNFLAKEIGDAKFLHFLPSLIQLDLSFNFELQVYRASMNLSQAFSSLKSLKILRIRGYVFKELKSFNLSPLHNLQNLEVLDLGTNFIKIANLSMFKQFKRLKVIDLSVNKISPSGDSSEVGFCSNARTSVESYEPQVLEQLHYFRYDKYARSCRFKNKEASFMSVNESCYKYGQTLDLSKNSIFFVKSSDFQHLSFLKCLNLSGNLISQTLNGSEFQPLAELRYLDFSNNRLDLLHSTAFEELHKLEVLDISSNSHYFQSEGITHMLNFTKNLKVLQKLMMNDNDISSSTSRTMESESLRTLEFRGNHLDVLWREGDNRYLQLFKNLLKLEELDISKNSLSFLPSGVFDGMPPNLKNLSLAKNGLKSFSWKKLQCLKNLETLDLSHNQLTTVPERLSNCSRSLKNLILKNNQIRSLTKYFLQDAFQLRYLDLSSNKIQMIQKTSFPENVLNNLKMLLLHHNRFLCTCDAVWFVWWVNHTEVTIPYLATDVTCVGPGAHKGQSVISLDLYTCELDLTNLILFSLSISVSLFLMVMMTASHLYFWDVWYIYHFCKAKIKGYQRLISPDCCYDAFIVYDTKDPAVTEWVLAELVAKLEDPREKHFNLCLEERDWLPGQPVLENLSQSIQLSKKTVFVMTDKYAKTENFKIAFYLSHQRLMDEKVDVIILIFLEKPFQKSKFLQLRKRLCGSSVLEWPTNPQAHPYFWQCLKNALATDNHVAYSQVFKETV
Scale: log10; quantity: EC50; unit before log: nM

Data request: Query (compound): CCCCNc1nc(N)nc2ccc(Cc3ccc(CN4CCCC4)cc3)nc12 ; field requested: log10 EC50
Data returned: 2.00

Data request: What do we get for CCCCNc1nc(N)nc2ccc(Cc3ccc(CN(C)C)cc3)nc12 ?
Data returned: 1.60

Data request: What do we get for CCCCNc1nc(N)nc2ccc(C(C)c3ccc(CN(C)C)cc3)nc12 (stereo not drawn) ?
Data returned: 3.22

Data request: What do we get for CCCCNc1nc(N)nc2ccc(Cc3ccc(CN(C)C)cc3OC)nc12 ?
Data returned: 1.30

Data request: What do we get for COCCNc1nc(N)nc2ccc(Cc3ccc(CN(C)C)cc3)nc12 ?
Data returned: 2.07

Data request: What do we get for CCCCNc1nc(N)nc2ccc(Cl)nc12 ?
Data returned: 3.41

Data request: What do we get for CCCCNc1nc(N)nc2ccc(Cc3ccc(CN4CCOCC4)cc3)nc12 ?
Data returned: 2.07

Data request: What do we get for CCCCOc1nc(N)c2c(n1)N(Cc1cccc(CN3CCCC3)c1)CC(=O)N2 [GS9620, reference compound] ?
Data returned: 2.55

###

target: hTLR7 (Homo sapiens); experiment: HEK-Blue hTLR7 SEAP reporter assay; details: HEK-Blue hTLR7 cells, SEAP in supernatant
test readout: EC50

Data request: Query (compound): CCCCCc1cc(Cc2ccc(CN(C)C)cc2)c(C)nc1N [B-130a] ; field requested: EC50
Data returned: > 10 µM

Data request: What do we get for CCCCCc1cc(Cc2ccc(CN3CCCC3)cc2)c(C)nc1N [B-130b] ?
Data returned: > 10 µM

Data request: What do we get for CCCCCc1cc2nc(Cc3ccc(CN(C)C)cc3)ccc2nc1N ?
Data returned: > 10 µM

Data request: What do we get for CCCN(CCC)C(=O)C1=Cc2ccc(-c3ccc(C(=O)N4CCCC4)cc3)cc2N=C(N)C1 [VTX-2337, reference compound] ?
Data returned: > 10 µM
